Data origin: ChEMBL document CHEMBL6074674

- Tested on: E3 ubiquitin-protein ligase RNF149/Epidermal growth factor receptor (Homo sapiens), P00533+Q8NC42 [UNDEFINED MUTATION]
- Sequence (P00533 whole entry, looked up, change not shown): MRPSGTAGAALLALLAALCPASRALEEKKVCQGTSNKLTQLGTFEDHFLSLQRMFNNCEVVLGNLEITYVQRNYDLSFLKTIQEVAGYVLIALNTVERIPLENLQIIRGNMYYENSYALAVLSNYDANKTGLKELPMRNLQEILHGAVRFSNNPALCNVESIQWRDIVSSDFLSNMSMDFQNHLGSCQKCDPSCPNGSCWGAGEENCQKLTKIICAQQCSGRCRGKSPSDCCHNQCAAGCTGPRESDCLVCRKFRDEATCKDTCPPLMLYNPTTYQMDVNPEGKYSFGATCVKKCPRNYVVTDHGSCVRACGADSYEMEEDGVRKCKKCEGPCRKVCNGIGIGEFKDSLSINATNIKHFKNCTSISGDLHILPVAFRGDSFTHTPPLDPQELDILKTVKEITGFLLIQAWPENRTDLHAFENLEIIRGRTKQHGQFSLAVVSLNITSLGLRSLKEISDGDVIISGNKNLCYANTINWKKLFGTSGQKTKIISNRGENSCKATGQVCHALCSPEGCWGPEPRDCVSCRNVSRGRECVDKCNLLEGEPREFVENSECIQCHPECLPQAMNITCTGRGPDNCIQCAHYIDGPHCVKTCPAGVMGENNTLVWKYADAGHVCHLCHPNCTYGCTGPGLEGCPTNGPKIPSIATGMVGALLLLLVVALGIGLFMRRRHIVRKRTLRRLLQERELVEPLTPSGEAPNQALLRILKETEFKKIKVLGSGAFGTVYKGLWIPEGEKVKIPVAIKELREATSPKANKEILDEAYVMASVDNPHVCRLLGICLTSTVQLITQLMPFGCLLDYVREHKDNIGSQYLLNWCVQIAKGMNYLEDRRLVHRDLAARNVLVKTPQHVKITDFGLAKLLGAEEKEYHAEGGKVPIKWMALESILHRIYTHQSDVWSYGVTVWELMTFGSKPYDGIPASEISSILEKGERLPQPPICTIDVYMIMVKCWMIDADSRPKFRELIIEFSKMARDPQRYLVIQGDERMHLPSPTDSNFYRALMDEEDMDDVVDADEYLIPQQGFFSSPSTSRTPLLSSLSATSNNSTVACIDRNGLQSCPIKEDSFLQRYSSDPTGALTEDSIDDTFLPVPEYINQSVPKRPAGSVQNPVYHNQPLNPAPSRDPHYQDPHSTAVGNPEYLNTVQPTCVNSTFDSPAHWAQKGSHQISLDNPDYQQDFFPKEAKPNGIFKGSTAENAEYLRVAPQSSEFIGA
- Sequence (Q8NC42 whole entry, looked up, change not shown): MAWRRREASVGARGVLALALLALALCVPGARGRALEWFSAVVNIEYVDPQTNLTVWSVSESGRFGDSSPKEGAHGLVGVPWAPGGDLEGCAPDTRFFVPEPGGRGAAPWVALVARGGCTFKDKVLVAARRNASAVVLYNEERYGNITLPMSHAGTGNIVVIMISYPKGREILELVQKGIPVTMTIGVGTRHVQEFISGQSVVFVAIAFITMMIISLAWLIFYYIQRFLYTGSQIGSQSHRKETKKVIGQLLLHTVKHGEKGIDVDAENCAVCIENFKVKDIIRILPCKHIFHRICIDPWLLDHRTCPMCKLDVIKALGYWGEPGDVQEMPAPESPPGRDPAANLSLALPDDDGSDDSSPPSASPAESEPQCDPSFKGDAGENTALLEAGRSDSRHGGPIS
- PROTOCOL_DESCRIPTION: SiHyT-mediated degrader activity at RNF149/EGFR mutant in human HCC827 cels assessed as induction of EGFR degradation at 0.1 uM cells incubated in serum-free media for 8 hrs followed by incubation with compound for 24 hrs by western blot analysis
- Assay type: cell-based
// Activity lookup, one value per entry
Return type: number; implicit unit %.

Consider the following illustrative entries.
>  <MOLECULAR_STRING>
COc1cc2ncnc(Nc3ccc(F)c(Cl)c3)c2cc1OCCOCCO[Si](c1ccccc1)(c1ccccc1)C(C)(C)C

>  <UNIT_OF_MEASUREMENT>
%

>  <Activity>
0

$$$$
>  <MOLECULAR_STRING>
COc1cc2ncnc(Nc3ccc(F)c(Cl)c3)c2cc1OCCn1cc(CCO[Si](C)(C)C2CCCCC2)nn1

>  <UNIT_OF_MEASUREMENT>
%

>  <Activity>
12.7

$$$$
>  <MOLECULAR_STRING>
COc1cc2ncnc(Nc3ccc(F)c(Cl)c3)c2cc1OCCn1cc(CCCO[Si](C)(C)C(C)(C)C)nn1

>  <UNIT_OF_MEASUREMENT>
%

>  <Activity>
19.7

$$$$
>  <MOLECULAR_STRING>
COc1cc2ncnc(Nc3ccc(F)c(Cl)c3)c2cc1OCCn1cc(CCO[Si](c2ccccc2)(c2ccccc2)C(C)(C)C)nn1

>  <UNIT_OF_MEASUREMENT>
%

>  <Activity>
46.4

$$$$
>  <MOLECULAR_STRING>
COc1cc2ncnc(Nc3ccc(F)c(Cl)c3)c2cc1OCCn1cc(CCCO[Si](C)(C)C2CCCCC2)nn1

>  <UNIT_OF_MEASUREMENT>
%

>  <Activity>
52.3

$$$$

Q: Find the recorded Activity belonging to COc1cc2ncnc(Nc3ccc(F)c(Cl)c3)c2cc1OCCCN1CCN(CCO[Si](c2ccccc2)(c2ccccc2)C(C)(C)C)CC1 and report it.
Result: 0

###

- System: HCC827
- PROTOCOL_DESCRIPTION: Antiproliferative activity against human HCC827 cells assessed as decrease in cell survival measured after 72 hrs by CCK-8 assay
- Format: functional, cell-based
- MEASUREMENT_CONTEXT: HCC827, 72 h
OUTCOME_MEASURE: pIC50
Friendly reminder that pIC50 comes from taking -log10 of the concentration in mol/L.

// below: answered compounds
>  <MOLECULAR_STRING>
COc1cc2ncnc(Nc3ccc(F)c(Cl)c3)c2cc1OCCn1cc(CCCCO[Si](c2ccccc2)(c2ccccc2)C(C)(C)C)nn1

>  <pIC50>
6.96

$$$$
>  <MOLECULAR_STRING>
COc1cc2ncnc(Nc3ccc(F)c(Cl)c3)c2cc1OCCn1cc(CCCO[Si](C)(C)C(C)(C)C)nn1

>  <pIC50>
5.25

$$$$

Q: Fill blank: measured pIC50 of the compound COc1cc2ncnc(Nc3ccc(F)c(Cl)c3)c2cc1OCCn1cc(CCO[Si](C)(C)C2CCCCC2)nn1 is ____.
Result: 6.35

Q: Also need COc1cc2ncnc(Nc3ccc(F)c(Cl)c3)c2cc1OCCn1cc(CCO[Si](c2ccccc2)(c2ccccc2)C(C)(C)C)nn1 , thanks.
Result: 6.85

Q: Same lookup for COc1cc2ncnc(Nc3ccc(F)c(Cl)c3)c2cc1OCCn1cc(CCCCO[Si](C)(C)C2CCCCC2)nn1 , please.
Result: 6.15

Q: Repeat for the following compound: COc1cc2ncnc(Nc3ccc(F)c(Cl)c3)c2cc1OCCCN1CCN(CCn2cc(CCCCO[Si](c3ccccc3)(c3ccccc3)C(C)(C)C)nn2)CC1
Result: 5.52

Q: Now this one: COc1cc2ncnc(Nc3ccc(F)c(Cl)c3)c2cc1OCCn1cc(CCCO[Si](C)(C)C2CCCCC2)nn1
Result: 6.82
